Where do these numbers come from? They come from patent US20230235054A1.

- system.name: T1, recombinant human Nectin4 antigen (human, UniProt Q96NY8 32-349)
- T1 construct: construct not described
- T1 sequence (looked up): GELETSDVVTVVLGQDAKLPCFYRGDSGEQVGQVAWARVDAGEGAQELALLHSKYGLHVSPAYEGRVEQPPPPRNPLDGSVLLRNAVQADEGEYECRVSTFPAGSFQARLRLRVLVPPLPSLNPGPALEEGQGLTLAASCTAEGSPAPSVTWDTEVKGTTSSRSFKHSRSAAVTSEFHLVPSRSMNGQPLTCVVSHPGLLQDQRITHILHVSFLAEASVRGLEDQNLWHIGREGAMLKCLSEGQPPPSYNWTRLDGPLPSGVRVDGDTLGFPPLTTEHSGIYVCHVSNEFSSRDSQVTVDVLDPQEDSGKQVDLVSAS
- protocol.text: pH range ELISA, 30 ng/mL, pH of 50% binding activity
experimental.readout: pH inflection point (pH)
Number in pH, nothing else.

INPUT: Given BAP-143-07-03-12 (antibody, V domains shown, Used as a conjugate with a linker payload (CAB ADC)) VH: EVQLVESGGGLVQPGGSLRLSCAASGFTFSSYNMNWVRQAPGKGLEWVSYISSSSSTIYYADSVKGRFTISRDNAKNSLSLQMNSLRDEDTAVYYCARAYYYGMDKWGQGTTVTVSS VL: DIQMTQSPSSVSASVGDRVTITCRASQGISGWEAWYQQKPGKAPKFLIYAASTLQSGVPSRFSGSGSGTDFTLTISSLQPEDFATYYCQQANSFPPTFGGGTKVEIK , state its recorded pH inflection point.
OUTPUT: 6.51
